meta.source: paper PMC9318782

In this section, each of the molecules is paired with its reported inhibition at 0.75 µM.
- SUBJECT OF TEST: PAS of EeAChE (Electrophorus electricus, UniProt O42275)
- Construct: purchased Sigma-Aldrich
- Sequence (O42275 24-633): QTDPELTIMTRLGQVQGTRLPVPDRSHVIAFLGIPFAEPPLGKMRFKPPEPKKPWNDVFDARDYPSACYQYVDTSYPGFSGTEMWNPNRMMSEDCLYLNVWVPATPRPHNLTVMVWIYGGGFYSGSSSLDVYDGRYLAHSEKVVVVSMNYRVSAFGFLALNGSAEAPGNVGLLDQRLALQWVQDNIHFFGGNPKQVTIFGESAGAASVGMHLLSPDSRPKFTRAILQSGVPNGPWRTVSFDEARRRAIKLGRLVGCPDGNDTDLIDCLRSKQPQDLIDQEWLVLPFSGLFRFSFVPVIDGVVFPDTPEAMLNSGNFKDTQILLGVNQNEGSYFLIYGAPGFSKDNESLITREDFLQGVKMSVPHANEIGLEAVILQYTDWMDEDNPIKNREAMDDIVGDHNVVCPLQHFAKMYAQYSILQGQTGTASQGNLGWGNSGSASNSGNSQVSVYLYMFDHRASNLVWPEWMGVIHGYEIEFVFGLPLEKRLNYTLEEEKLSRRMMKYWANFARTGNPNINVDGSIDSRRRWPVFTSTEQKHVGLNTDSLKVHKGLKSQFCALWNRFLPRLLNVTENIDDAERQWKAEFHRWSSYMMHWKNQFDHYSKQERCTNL
- EXPERIMENTAL DETAILS: Propidium iodide displacement assay
- Assay type: binding
- CONDITION INFO: 0.25 h, read-out: % Displacement of Propidium Iodide

MOLECULE	SUBJECT OF TEST	OUTPUT UNIT	inhibition at 0.75 µM
C=C(C)[C@@H]1CC[C@]2(C(=O)O)CC[C@]3(C)[C@H](CC[C@@H]4[C@@]5(C)[C@@H](C(=O)O)[C@H](O)C(C)(C)[C@@H]5CC[C@]43C)[C@@H]12 [Compound 3, Ceanothic acid]	PAS of EeAChE (Electrophorus electricus, UniProt O42275)	%	34.2
C=C(C)[C@@H]1CC[C@]2(C(=O)O)CC[C@]3(C)C(CCC4[C@@]5(C)C(C(=O)O)C(=O)C(C)(C)C5CC[C@]43C)C12 (some centres unmarked) [Compound 6, 3-oxo-ceanothic acid]	PAS of EeAChE (Electrophorus electricus, UniProt O42275)	%	24.3
C=C(C)[C@@H]1CC[C@]2(C(=O)O)CC[C@]3(C)[C@H](CC[C@@H]4[C@@]5(C)[C@H](CO)[C@@H](O)C(C)(C)[C@@H]5CC[C@]43C)[C@@H]12 [Compound 5, Ceanothanolic acid]	PAS of EeAChE (Electrophorus electricus, UniProt O42275)	%	14.5
C=C(C)[C@@H]1CC[C@]2(C(=O)O)CC[C@]3(C(=O)O)[C@H](CC[C@@H]4[C@@]5(C)C=CC(C)(C)[C@@H]5CC[C@]43C)[C@@H]12 [Compound 4, Ceanothenic acid]	PAS of EeAChE (Electrophorus electricus, UniProt O42275)	%	20.1
C=C(C)[C@@H]1CC[C@]2(C(=O)O)CC[C@]3(C)C(CCC4[C@@]5(C)C(C=O)=CC(C)(C)C5CC[C@]43C)C12 (some centres unmarked) [Compound 1, Zizyberenalic acid]	PAS of EeAChE (Electrophorus electricus, UniProt O42275)	%	19.7

* * *

These compounds were tested on AChE (Electrophorus electricus); Ki is the recorded read-out.
Sequence (O42275 24-633): as above
EXPERIMENTAL READOUT: Ki (µM)

COMPOUND	SUBJECT OF TEST	EXPERIMENTAL READOUT	MEASURED VALUE
C=C(C)[C@@H]1CC[C@]2(C(=O)O)CC[C@]3(C(=O)O)[C@H](CC[C@@H]4[C@@]5(C)C=CC(C)(C)[C@@H]5CC[C@]43C)[C@@H]12	AChE (Electrophorus electricus)	Ki	0.022
C=C(C)[C@@H]1CC[C@]2(C(=O)O)CC[C@]3(C)[C@H](CC[C@@H]4[C@@]5(C)[C@@H](C(=O)O)[C@H](O)C(C)(C)[C@@H]5CC[C@]43C)[C@@H]12	AChE (Electrophorus electricus)	Ki	0.055
C=C(C)[C@@H]1CC[C@]2(C(=O)O)CC[C@]3(C)C(CCC4[C@@]5(C)C(C=O)C(O)C(C)(C)C5CC[C@]43C)C12 (stereo partly shown)	AChE (Electrophorus electricus)	Ki	0.028
C=C(C)[C@@H]1CC[C@]2(C(=O)O)CC[C@]3(C)C(CCC4[C@@]5(C)C(C=O)=CC(C)(C)C5CC[C@]43C)C12 (stereo partly shown)	AChE (Electrophorus electricus)	Ki	0.046
C=C(C)[C@@H]1CC[C@]2(C(=O)O)CC[C@]3(C)C(CCC4[C@@]5(C)C(C(=O)O)C(OC(C)=O)C(C)(C)C5CC[C@]43C)C12 (stereo partly shown)	AChE (Electrophorus electricus)	Ki	0.05
C=C(C)[C@@H]1CC[C@]2(C(=O)O)CC[C@]3(C)[C@H](CC[C@@H]4[C@@]5(C)[C@H](CO)[C@@H](O)C(C)(C)[C@@H]5CC[C@]43C)[C@@H]12	AChE (Electrophorus electricus)	Ki	0.056
C=C(C)[C@@H]1CC[C@]2(C(=O)O)CC[C@]3(C)C(CCC4[C@@]5(C)C(C(=O)O)C(=O)C(C)(C)C5CC[C@]43C)C12 (stereo partly shown)	AChE (Electrophorus electricus)	Ki	0.047
